- system: T1, human IL-36R extracellular domain expressed with a C-terminal myc-myc-hexahistidine tag (hIL-36R-MMH) (human, UniProt Q9HB29 20-337)
- T1 construct: also called Human IL-36R-MMH; REGN2105
- T1 sequence (Q9HB29 other isoform, or with tags, fused parts or gaps limits assumed): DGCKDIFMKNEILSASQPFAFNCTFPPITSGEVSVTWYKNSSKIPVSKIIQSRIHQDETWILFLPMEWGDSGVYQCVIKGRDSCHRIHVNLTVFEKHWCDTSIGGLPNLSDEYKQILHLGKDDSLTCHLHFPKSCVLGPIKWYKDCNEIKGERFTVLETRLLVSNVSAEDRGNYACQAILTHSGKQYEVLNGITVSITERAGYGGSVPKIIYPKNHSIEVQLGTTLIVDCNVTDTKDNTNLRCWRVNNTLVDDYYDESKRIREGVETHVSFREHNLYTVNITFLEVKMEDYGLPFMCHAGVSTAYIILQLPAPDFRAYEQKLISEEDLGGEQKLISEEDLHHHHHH
- method_notes: SPR Biacore T200, mAb captured on anti-hFc, 25C, PBS-T pH 6.0 running buffer
Catalogue of binders with associated 100 nM Human IL-36R-MMH Bound (RU)
# unit: RU | format: bare number

Here is how some binders turned out for 100 nM Human IL-36R-MMH Bound (RU).
| binder | 100 nM Human IL-36R-MMH Bound (RU) |
| --- | --- |
| H4H14731P (antibody, human IgG4 S228P, kappa, V domains shown, Fully human anti-IL-36R antibody) VH: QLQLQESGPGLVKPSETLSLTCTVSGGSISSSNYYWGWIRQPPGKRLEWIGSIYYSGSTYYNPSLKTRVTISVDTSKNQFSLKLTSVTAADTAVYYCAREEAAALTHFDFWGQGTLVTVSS VL: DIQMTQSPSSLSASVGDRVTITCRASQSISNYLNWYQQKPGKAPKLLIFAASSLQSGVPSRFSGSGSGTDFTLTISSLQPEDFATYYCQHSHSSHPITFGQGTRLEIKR | 43 |
| H4H14728P (antibody, human IgG4 S228P, kappa, V domains shown, Fully human anti-IL-36R antibody) VH: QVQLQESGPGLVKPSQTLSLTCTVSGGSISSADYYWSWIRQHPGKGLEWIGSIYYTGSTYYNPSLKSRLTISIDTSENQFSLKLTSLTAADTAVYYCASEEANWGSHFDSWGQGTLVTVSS VL: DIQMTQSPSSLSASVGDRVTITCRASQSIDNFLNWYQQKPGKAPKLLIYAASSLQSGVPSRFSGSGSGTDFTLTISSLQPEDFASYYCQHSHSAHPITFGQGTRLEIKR | 96 |
| H4H14706P2 (antibody, human IgG4 S228P, kappa, V domains shown, Fully human anti-IL-36R antibody) VH: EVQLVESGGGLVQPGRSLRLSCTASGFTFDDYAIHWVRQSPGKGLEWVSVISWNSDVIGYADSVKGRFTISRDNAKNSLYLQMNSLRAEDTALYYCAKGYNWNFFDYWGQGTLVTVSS VL: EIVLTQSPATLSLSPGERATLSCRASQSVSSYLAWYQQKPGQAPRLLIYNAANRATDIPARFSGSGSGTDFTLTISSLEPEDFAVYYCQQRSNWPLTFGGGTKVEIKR | 109 |

Continue with the next binder.
Q: So what's the measured 100 nM Human IL-36R-MMH Bound (RU) for this one? H4H14758P (antibody, human IgG4 S228P, kappa, V domains shown, Fully human anti-IL-36R antibody) VH: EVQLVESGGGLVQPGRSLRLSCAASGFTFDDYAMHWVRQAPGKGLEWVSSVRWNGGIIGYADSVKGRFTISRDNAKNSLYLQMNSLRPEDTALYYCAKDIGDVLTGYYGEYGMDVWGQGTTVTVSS VL: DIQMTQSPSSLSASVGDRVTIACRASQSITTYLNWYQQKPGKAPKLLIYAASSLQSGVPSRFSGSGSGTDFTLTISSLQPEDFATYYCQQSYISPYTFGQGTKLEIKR
Ans: 103
